Protocol description: Compound solubility in water
Condition label: water
Outcome measure: Compound Solubility in Water (µg/mL)

[[record]]
compound = "Cc1cc(C)n2ccc(C(=O)NC3CCC4(CCCO4)CC3)c2n1 (stereo not shown)"
value_observed = 17.4

[[record]]
compound = "Cc1cc(C)n2ccc(C(=O)Nc3ccc4c(c3)CCC4)c2n1"
value_observed = 0.06

[[record]]
compound = "Cc1cc(C)n2ccc(C(=O)NC3CCC4(CCCO4)C3)c2n1 (stereo not shown)"
value_observed = 20.4

[[record]]
compound = "Cc1cc(C)n2ccc(C(=O)NC3CCC4(CCCCO4)CC3)c2n1 (stereo not shown)"
value_observed = 19.7

[[record]]
compound = "Cc1cc(C)n2ccc(C(=O)NC3CCC4(CCCCO4)C3)c2n1 (stereo not shown)"
value_observed = 21.3

[[record]]
compound = "Cc1cc(C)n2ccc(C(=O)Nc3ccc(-c4ccco4)cc3)c2n1 [III-117]"
value_observed = 0.02

[[record]]
compound = "CCCCCOC1CCC(NC(=O)c2ccn3c(C)cc(C)nc23)C1 (stereo not shown) [III-176]"
value_observed = 4.6

[[record]]
compound = "CCCCCO[C@@H]1CC[C@H](NC(=O)c2ccn3c(C)cc(C)nc23)C1 [III-145]"
value_observed = 2.3

[[record]]
compound = "Cc1cc(C)n2ccc(C(=O)NC3CCC(C4CCCO4)CC3)c2n1 (stereo not shown)"
value_observed = 12.4

[[record]]
compound = "Cc1cc(C)n2ccc(C(=O)NC3CCC(c4cccs4)CC3)c2n1 (stereo not shown) [III-187]"
value_observed = 0.4


I. Cc1cc(C)n2ccc(C(=O)NC3CCCC4(CCCCO4)C3)c2n1 (stereo not shown)
II. CCCCCOC1CCC(NC(=O)c2ccn3c(C)cc(C)nc23)C1 (stereo not shown) [III-177]
III. Cc1cc(C)n2ccc(C(=O)NC3CCCC34CCCCO4)c2n1 (stereo not shown) [III-139]
IV. Cc1cc(C)n2ccc(C(=O)NC3CCCC34CCCCO4)c2n1 (stereo not shown) [III-138]
Query: Sort ascending by Compound Solubility in Water. // format: requested-order list of labels
Response: III, I, II, IV

a. CCCCCO[C@@H]1CC[C@H](NC(=O)c2ccn3c(C)cc(C)nc23)C1 [III-180]
b. Cc1cc(C)n2ccc(C(=O)NC3CCC(C(=O)N(C)C4CC4)CC3)c2n1 (stereo not shown)
Query: Which value of Compound Solubility in Water is numerically greater: that of a or that of b ? Answer = label.
Response: b
(b: 41.1 µg/mL, a: 10.4 µg/mL)
